- target-desc: T1, human ACTH 1-13 (human, ends and bridges not checked)
- T1 construct: also called human alpha-MSH (ACTH 1-13); alpha-MSH
- T1 peptide: SYSMEHFRWGKPV
- assay-procedure: SPR ProteOn, antibody immobilised; SPR, antibody on the chip, alpha-MSH alone (Table 6)
Ends that are not written are not given here.
quantity-measured: koff

>>> recorded_result("Ab7 (antibody, human IgG1, kappa, N297A, V domains shown, rabbit/human chimeric antibody, made in HEK-293) VH: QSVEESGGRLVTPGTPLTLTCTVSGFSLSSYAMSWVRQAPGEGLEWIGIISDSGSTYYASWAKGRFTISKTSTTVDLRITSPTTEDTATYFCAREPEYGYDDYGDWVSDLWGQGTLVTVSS VL: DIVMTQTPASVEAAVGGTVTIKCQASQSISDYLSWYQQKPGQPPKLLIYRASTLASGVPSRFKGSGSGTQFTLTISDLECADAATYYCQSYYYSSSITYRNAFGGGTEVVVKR")
"0.013 s⁻¹"
>>> recorded_result("Ab9 (antibody, human IgG1, kappa, N297A, V domains shown, rabbit/human chimeric antibody, made in HEK-293) VH: QSVEESGGRLVTPGTPLTLTCTVSGFSLNSYAMSWVRQAPGEGLEWIGIISDSGRTYYASWAKGRFTISKTSTTVDLKITSPTTEDTATYFCAREPEYGYDDYGDWVSDLWGPGTLVTVSS VL: DVVMTQTPASVEAAVGGTVTIKCQASQSISSYLSWYQQKPGQPPKLLIYRASTLASGVPSRFKGSGSGTQFTLTISDLECADAATYYCQSYYYSSSITYRNAFGGGTEVVVKR")
"0.009 s⁻¹"
>>> recorded_result("Ab6 (antibody, human IgG1, kappa, N297A, V domains shown, rabbit/human chimeric antibody, made in HEK-293) VH: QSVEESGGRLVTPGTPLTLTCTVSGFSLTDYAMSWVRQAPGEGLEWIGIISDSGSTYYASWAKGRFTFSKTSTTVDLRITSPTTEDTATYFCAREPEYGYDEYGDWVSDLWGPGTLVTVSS VL: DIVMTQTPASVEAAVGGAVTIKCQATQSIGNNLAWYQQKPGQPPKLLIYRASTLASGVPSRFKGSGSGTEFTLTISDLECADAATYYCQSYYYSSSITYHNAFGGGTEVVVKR")
"0.0052 s⁻¹"
